- SUBJECT_OF_TEST: T1, human PVRIG (Poliovirus Receptor Related Immunoglobulin Domain Containing Protein), full length on cells (human, UniProt Q6DKI7 41-326)
- T1 construct: whole, on cells; Over-expressed on HEK293 (some pools flag-tagged) or endogenous on Jurkat, CA46, T cells, NK cells, TILs; also called hPVRIG; HEK hPVRIG
- T1 sequence (looked up): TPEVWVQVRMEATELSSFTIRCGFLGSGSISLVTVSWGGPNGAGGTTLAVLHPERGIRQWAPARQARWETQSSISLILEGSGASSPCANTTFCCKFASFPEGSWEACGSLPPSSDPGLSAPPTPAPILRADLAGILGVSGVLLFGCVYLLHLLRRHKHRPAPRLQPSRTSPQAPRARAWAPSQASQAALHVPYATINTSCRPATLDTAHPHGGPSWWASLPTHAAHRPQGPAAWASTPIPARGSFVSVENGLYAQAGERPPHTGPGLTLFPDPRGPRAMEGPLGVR
- METHOD_NOTES: FACS dose titration on PVRIG over-expressing HEK293 cells
- Protocol: FACS screening of the reformatted antibodies was done similarly to the PPE based screen described herein, except that a dose-dependent titration of the purified antibodies was performed. […] Samples were analyzed using an Intellicyt HTFC screening system (Intellicyt). Data was analyzed using FlowJo (DeNovo), exported to Excel (Microsoft) and plotted in GraphPad Prism (GraphPad Software, Inc.). […]
pKd: −log10 of the molar value.
Label Y when pKd is at or above 8; anything below gets N.

- CPA.7.009 human IgG1 (antibody, V domains shown) VH: EVQLVQSGAEVKKPGASVKVSCKVSGYTLTELSMHWVRQAPGKGLEWMGGFDPEDGETIYAQKFQGRVTMTEDTSTDTAYMELSSLRSEDTAVYYCATAKPGIAVAGQNYYYYYMDVWGKGTTVTVSS VL: DVVMTQSPLSLPVTPGEPASISCRSSQSLLYRNGNNYLDWYLQKPGQSPQLLIYLGSNRASGVPDRFSGSGSGTDFTLKISRVEAEDVGVYYCMQALQTPPTFGGGTKLEIKR: N
- CPA.7.047 human IgG1 (antibody, V domains shown) VH: EVQLVQSGAEVKKPGASVKVSCKVSGYTLTELSMHWVRQAPGKGLEWMGGFDPEDGETIYAQKFQGRVTMTEDTSTDTAYMELSSLRSEDTAVYYCATAFPEATISYYYYMDVWGKGTTVTVSS VL: DVVMTQSPLSLPVTPGEPASISCRSSQSLLYRNGYNYLDWYLQKPGQSPQLLIYWGSYRASGVPDRFSGSGSGTDFTLKISRVEAEDVGVYYCMQAVQNPPTFGQGTKVEIKR: Y
- CPA.7.004 human IgG1 (antibody, V domains shown) VH: EVQLVQSGAEVKKPGASVKVSCKVSGYTLTELSMHWVRQAPGKGLEWMGGFDPEDGETIYAQKFQGRVTMTEDTSTDTAYMELSSLRSEDTAVYYCATVSRVRGVINYYYYMDVWGKGTTVTVSS VL: DVVMTQSPLSLPVTPGEPASISCRSSQSLLYRNGNNYLDWYLQKPGQSPQLLIYLGSNRASGVPDRFSGSGSGTDFTLKISRVEAEDVGVYYCMQALQTPPTFGGGTKLEIKR: N
